- Tested on: Rattus norvegicus
- measurement description: Antiallergic activity by passive cutaneous anaphylaxis test after intravenous administration.
- Type: functional
- run parameters: read-out: ID50 (the source's name)
Label key: Met means ED50 under 10 µmol/kg; Not met means ED50 of 10 µmol/kg or more.

Before answering, review these 3 worked examples.
O=C(O)C1=CNC2=C(/C=N/c3ccccc3C(=O)O)CCCCN2C1=O
Not met
O=C(O)C1=CNC2=C(/C=N/c3ccccc3C(=O)O)CCCN2C1=O
Not met
CC1CCC(/C=N/c2ccccc2C(=O)O)=C2NC=C(C(=O)O)C(=O)N21 (stereo not given)
Met

Lab note: confirm whether the reported ED50 for this compound is below 10 µmol/kg, equality not counting. compound: CC1CC/C(=N\Nc2ccccc2)c2ncc(/C=C/C(=O)O)c(=O)n21 (stereo not given)
Met

====

Parameter: ED50. Scope: all listed entries.
- Tested on: Rattus norvegicus
- measurement description: Antiallergic activity by passive cutaneous anaphylaxis test after intravenous administration.
- Format: functional
- run parameters: read-out: ID50 (the source's name)

CC1CCC(/C=N/c2cccnc2)=C2NC=C(C(=O)O)C(=O)N21 (centres undefined)
2.4 µmol/kg

Provide measured ED50 value, entry: Cc1cccc(/N=C/C2=C3NC=C(C(=O)O)C(=O)N3[C@@H](C)CC2)c1
0.02 µmol/kg

Provide measured ED50 value, entry: Cc1cccc(/N=C/C2=C3NC=C(C(=O)O)C(=O)N3[C@H](C)CC2)c1
66.9 µmol/kg

Provide measured ED50 value, entry: C[C@H]1CC/C(=N\Nc2ccccc2)c2ncc(/C=C/C(=O)O)c(=O)n21
0.15 µmol/kg

====

- System: Rattus norvegicus
- measurement description: Inhibition of histamine release by 50% in rats after intra peritoneal administration
- Assay type: functional
Label key: T means ID50 under 20 nmol/kg; F means ID50 of 20 nmol/kg or more.

CC1CCC(/C=N/c2cccnc2)=C2NC=C(C(=O)O)C(=O)N21 (stereo unspecified)
F
Cc1cccc(/N=C/C2=C3NC=C(C(=O)O)C(=O)N3C(C)CC2)c1 (stereo unspecified)
T
CC1CCC(/C=N/c2ccc(CC(=O)O)cc2)=C2NC=C(C(=O)O)C(=O)N21 (stereo unspecified)
F
C[C@H]1CC/C(=N\Nc2ccccc2)c2ncc(C(=O)O)c(=O)n21
T
O=C([O-])c1cc(=O)c2c(OCC(O)COc3cccc4oc(C(=O)[O-])cc(=O)c34)cccc2o1.[Na+].[Na+] [CROMOLYN SODIUM]
T

API: the following record is the query input.
Lab note: confirm whether the reported ID50 for this molecule is below 20 nmol/kg, equality not counting. molecule: CC1CCC(/C=N/c2ccccc2C(=O)O)=C2NC=C(C(=O)O)C(=O)N21 (stereo unspecified)
T

====

Parameter: ED50. Scope: all listed entries.
- Tested on: Rattus norvegicus
- measurement description: Antiallergic activity by passive cutaneous anaphylaxis test after intravenous administration.
- Assay type: functional
- run parameters: read-out: ID50 (the source's name)

Below: 2 molecules and their reported ED50.
CCOC(=O)C1=CNC2=C(/C=N/c3cccc(C(=O)O)c3)CCC(C)N2C1=O (stereo unspecified)
100 µmol/kg
C[C@@H]1CC/C(=N\Nc2ccccc2)c2ncc(/C=C/C(=O)O)c(=O)n21
> 100 µmol/kg

Provide measured ED50 value, entry: CC1CCN2C(=O)C(C(=O)O)=CNC2=C1/C=N/c1ccccc1C(=O)O (stereo unspecified)
100 µmol/kg

Provide measured ED50 value, entry: CC1CC(/C=N/c2ccccc2)=C2NC=C(C(=O)O)C(=O)N21 (stereo unspecified)
20.2 µmol/kg

Provide measured ED50 value, entry: CC1CCC(/C=N/c2ccc(F)cc2)=C2NC=C(C(=O)O)C(=O)N21 (stereo unspecified)
10.6 µmol/kg

Provide measured ED50 value, entry: CC1CC(/C=N/c2ccccc2C(=O)O)=C2NC=C(C(=O)O)C(=O)N2C1 (stereo unspecified)
48.1 µmol/kg

Provide measured ED50 value, entry: CCOc1ccc(/N=C/C2=C3NC=C(C(=O)O)C(=O)N3C(C)CC2)cc1 (stereo unspecified)
8.96 µmol/kg

Provide measured ED50 value, entry: O=C(O)c1cnc2n(c1=O)CCCC/C2=N\Nc1ccccc1
14.4 µmol/kg

Provide measured ED50 value, entry: CC1CCC(=NNc2ccccc2)c2ncc(C(=O)O)c(=O)n21 (stereo unspecified)
0.6 µmol/kg

Provide measured ED50 value, entry: O=C(O)C1=CNC2=C(/C=N/c3ccccc3)CCN2C1=O
15.4 µmol/kg

Provide measured ED50 value, entry: CC1CCCc2ncc(C(=O)O)c(=O)n21 (stereo unspecified)
240 µmol/kg
